target: SARS-CoV-2 RBD (wild type) (SARS-CoV-2, UniProt P0DTC2 319-539); test: ELISA on coated RBD
assayMetric: log10(EC50) (log10 of the value in ng/mL)

binder	log10(EC50)
C096 (antibody, V domains shown) VH: EVQLVESGGGLVKPGGSLRLSCVASGFTFRNAWMNWVRQAPGKGLEWVGRIKANSDGGTIDYAEPVQGRFTISREDSRNSLYLQMNSLKTEDTAVYYCTTGPQYDDFGHSYIVDSWGPGTLVTVSS VL: DIVMTQSPLSLPVTLGEPASISCRSSQSLLHSNGFHFLEWYLQKPGQSPQLLIYVGSNRASGVPDRFSGSGSGTDFTLKISRVEAEDVGVYYCMQTLQTPLTFGGGTKVEIK	0.71
C097 (antibody, V domains shown) VH: QVQLQESGPGLVKPSQTLSLTCTVSGGSISSGPYYWSWIRQHPGKGLEWIGYIYYSGSTYYNPSLKSRVTISVDTSKKQFSLNLNSVTAADTAVYYCARVWQYYDSTGSFDYWGQGTLVTVSS VL: DIVMTQSPLSLPVTPGEPASISCRSSRGLLHSNGYNYLDWYLQKPGQSPQLLIYLGSNRASGVPDRFSGSGSVTDFTLNISRVEAEDVGVYYCMQALQTPFTFGPGTKVDIK	0.54
C217 (antibody, V domains shown) VH: EVQLVESGGGLVKPGGSLRLSCAASGFTFSSYSMNWVRQAPGKGLEWVSFISSRSSYIYYADSVKGRFTISRDNAKNSLYLQMNSLRAEDTAVYYCARVQVGARGWVDYWGQGTLVTVSS VL: NFMLTQPHSVSESPGKTVTISCTRSSGSIASNYVQWYQQRPGSAPTTVIYEDNQRPSGVPDRFSGSIDSSSNSASLTISGLKTEDEADYYCQSYDSINWVFGGGTKLTVL	0.36
C099 (antibody, V domains shown) VH: EVQLVESGGGLIQPGGSLRLSCAASGITVSSNYMSWVRQAPGKGLEWVSVMYAGGSTFYADSVKGRFTISRDDSKNTLFLQMNSLRAEDTAIYYCARDLYSSGGTDIWGQGTMVTVSS VL: EIVLTQSPGTLSLSPGERATLSCRASQSIGSSYLAWYQQKPGLAPRLLIYGASRRATGIPDKFSGSGSGADFTLTISRLEPEDFAVYYCQQYGSSPGTFGQGTKVEIK	0.39
C092 (antibody, V domains shown) VH: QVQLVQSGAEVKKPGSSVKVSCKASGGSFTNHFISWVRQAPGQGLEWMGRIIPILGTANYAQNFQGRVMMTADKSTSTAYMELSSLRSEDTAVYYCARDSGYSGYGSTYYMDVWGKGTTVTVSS VL: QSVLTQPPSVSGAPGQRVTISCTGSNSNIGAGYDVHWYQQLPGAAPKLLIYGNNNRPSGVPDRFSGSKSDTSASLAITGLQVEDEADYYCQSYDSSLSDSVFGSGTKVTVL	0.85
C045 (antibody, V domains shown) VH: EVQLVESGGGLVQPGGSLRLSCAASGFTFSTYSMNWVRQAPGKGLEWVSYISSSSSTIHYADSVKGRFTISRDNAKNSLYLQMNSLRDEDTAVYYCAREAHDGALTDYGDYLNWFDPWGQGTLVTVSS VL: SYELTQPPSVSVAPGKTARITCGGTNIGSKNVHWYQQKPGQAPVLVIYYDNDRPSGIPERFSGSNSGNTATLTISRVEAGDEADYYCQVWDTTSDHFYWVFGGGTKLTVL	0.85
C044 (antibody, V domains shown) VH: EVQLVESGGGLVQPGGSLRLSCAASGFTFSSYSMNWVRQAPGKGLEWVSYISSSSSTIYYADSVKGRFTISRDNAKNSLYLQMNSLRDEDTAVYYCAREAHDGALTDYGDYLNWFDPWGQGTLVTVSS VL: SYELTQPPSVSVAPGKTARITCGGNNIGSKSVHWYQQKPGQAPVLVIYYDSDRPSGIPERFSGSNSGNTATLTISRVEAGDEADYYCQVWDSSSDHLYWVFGGGTKLTVL	3.26
C043 (antibody, V domains shown) VH: QLVQSGPEVKKPGTSVKVSCKASGFTFYNSAVQWVRQARGQRLEWVGWIVVGSGNTDYAQKFQERVTMTRDLSTNTAYMEVNSLRSEDTAVYYCAAPYCSGGTCLDGFDIWGQGTMVTVSS VL: EIVLTQSPGTLSLSPGERGTLSCRASQSVRSNYLAWYKQRPGQAPRLLVYGASSRATGIPDRFSGSGSGTDFTLTISRLEPEDFAVYYCQQYGSSPWTFGQGTKVEIK	1.08
C080 (antibody, V domains shown) VH: EVQLVQSGAEVKKPGESLNISCKASGYSFTIYWIAWVRQLPGKGLEWMGIIYPGDSDTRYSPSFQGQVTISADKSISTAYLQWRSLKASDSAVYYCARGVAVDWYFDLWGRGTLVTVSS VL: QSVLTQPPSVSGAPGQRVTISCAGSSSNIGAGFDVYWYQQLPGTAPKLLIYGNNNRPSGVPDRFSGSKSGTSASLAITGLQAEDEADYYCQSSGSVLSDLYVFGTGTKVTVL	0.29
C094 (antibody, V domains shown) VH: QVQLQESGPGLVKPSETLSLTCNVSGVSISTDYWSWIRQPPGKGLEWIGYIYYSGNTKDYNPSLKSRVTISVDTSKNQFSLMLSSVTAADTAVYYCARHYDILTSLSWFDPWGQGTLVTVSS VL: QSVLTQPPSVSAAPGQKVTISCSITNSNLGNIYVSWYQQLPGTAPKLLIYGNNKRPSGIPDRFSGSKSGTSATLGITGLQTGDEAHYYCGTWDSSLSANWVFGGGTKLTVL	0.22
